Here, each record is paired with measured shrunken log2 fold change data.
# System: Escherichia coli TOP10
# testSummary: shrunken log2 fold change of peptide-encoding DNA abundance (4.5 h post-induction vs induction); higher = less antimicrobial activity (less host growth inhibition)
# conditionDetails: time post-induction: 4.5 h; library: site-saturation at positions 5, 18, 19, 20
propertyLabel: shrunken log2 fold change

• RRIRARPPRLPRPRPRPLVFPRP = 0.397
• RRIRVRPPRLPRPRPRPIIEPRP = -0.087
• RRIRVRPPRLPRPRPRPYEKPRP = -0.293
• RRIRSRPPRLPRPRPRPISGPRP = -0.176
• RRIRDRPPRLPRPRPRPFNSPRP = -0.0203
• RRIRWRPPRLPRPRPRPCDLPRP = -0.286
• RRIRYRPPRLPRPRPRPKVNPRP = -0.599
• RRIRQRPPRLPRPRPRPNKRPRP = 0.0702
• RRIRKRPPRLPRPRPRPHWYPRP = 0.0533
• RRIRVRPPRLPRPRPRPVGWPRP = 0.77
• RRIRERPPRLPRPRPRPQPRPRP = 0.328
• RRIRDRPPRLPRPRPRPSMYPRP = -0.105
• RRIRIRPPRLPRPRPRPEQQPRP = -0.132
• RRIRSRPPRLPRPRPRPIFEPRP = 0.0577
• RRIRIRPPRLPRPRPRPGYFPRP = -0.904

====

# System: Escherichia coli TOP10;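 further: peptides expressed intracellularly from a pBAD plasmid library in pooled LB shake-flask culture, induced with 0.3% L-arabinose, DNA abundance read by NGS, three biological replicates, DESeq2 with apeglm shrinkage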
# testSummary: shrunken log2 fold change of peptide-encoding DNA abundance (4.5 h post-induction vs induction); higher = less antimicrobial activity (less host growth inhibition)
# conditionDetails: time post-induction: 4.5 h; library: site-saturation at positions 5, 18, 19, 20
Mark NOT MET for shrunken log2 fold change values under 0.008, and MET for everything at or above.

* RRIRHRPPRLPRPRPRPHNDPRP | NOT MET
* RRIRARPPRLPRPRPRPLYRPRP | NOT MET
* RRIRKRPPRLPRPRPRPLMKPRP | MET
* RRIRCRPPRLPRPRPRPYTQPRP | NOT MET
* RRIRERPPRLPRPRPRPSAVPRP | NOT MET
* RRIRWRPPRLPRPRPRPVMRPRP | MET
* RRIRKRPPRLPRPRPRPIRNPRP | NOT MET
* RRIRARPPRLPRPRPRPWNQPRP | NOT MET
* RRIRERPPRLPRPRPRPGQKPRP | MET
* RRIRLRPPRLPRPRPRPCPCPRP | NOT MET
* RRIRYRPPRLPRPRPRPDHNPRP | NOT MET
* RRIRVRPPRLPRPRPRPSMGPRP | NOT MET
* RRIRPRPPRLPRPRPRPNGFPRP | NOT MET
* RRIRQRPPRLPRPRPRPAGQPRP | NOT MET
* RRIRTRPPRLPRPRPRPQNYPRP | NOT MET
* RRIRIRPPRLPRPRPRPMPLPRP | MET
* RRIRNRPPRLPRPRPRPINTPRP | NOT MET
* RRIRWRPPRLPRPRPRPPCMPRP | NOT MET
* RRIRPRPPRLPRPRPRPMFPPRP | MET
* RRIRQRPPRLPRPRPRPTWPPRP | MET
* RRIRCRPPRLPRPRPRPYYAPRP | NOT MET
* RRIRWRPPRLPRPRPRPWIWPRP | MET
* RRIRQRPPRLPRPRPRPAKDPRP | MET
* RRIRCRPPRLPRPRPRPVYFPRP | NOT MET
* RRIRDRPPRLPRPRPRPCSHPRP | NOT MET
* RRIRGRPPRLPRPRPRPDVYPRP | NOT MET
* RRIRIRPPRLPRPRPRPCYCPRP | NOT MET
* RRIRIRPPRLPRPRPRPLMFPRP | NOT MET
* RRIRDRPPRLPRPRPRPQCSPRP | MET
* RRIRWRPPRLPRPRPRPCHSPRP | NOT MET
* RRIRWRPPRLPRPRPRPENSPRP | MET
